# test.target: human CB2 receptor (Homo sapiens, UniProt P34972)
# Construct: expressed in transfected cells; host or cells: human embryonic kidney (HEK) cells, Semliki Forest Virus system, membrane preparations
# Sequence (P34972 whole entry): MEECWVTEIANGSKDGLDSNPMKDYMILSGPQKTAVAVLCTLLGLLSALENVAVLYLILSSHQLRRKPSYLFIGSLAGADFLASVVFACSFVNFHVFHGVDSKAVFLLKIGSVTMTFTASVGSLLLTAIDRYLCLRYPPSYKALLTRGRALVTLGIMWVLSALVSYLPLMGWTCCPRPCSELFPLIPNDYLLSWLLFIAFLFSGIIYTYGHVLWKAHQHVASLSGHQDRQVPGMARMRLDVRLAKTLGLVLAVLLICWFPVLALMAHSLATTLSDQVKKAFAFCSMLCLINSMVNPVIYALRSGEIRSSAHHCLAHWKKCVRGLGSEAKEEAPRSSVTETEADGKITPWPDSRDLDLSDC
# measurement.protocol: CB2 receptor affinity, [3H]-CP-55,940 displacement, HEK cell membranes
# Assay type: binding
# protocol.conditions: 10 μM compound, radioligand [3H]-CP-55,940
Label N if inhibition at 10 µM falls below 10%; label Y in every other case.

CC(C)c1cc(CNC(=O)c2cc(-c3ccc(Cl)cc3)c(OCC(F)(F)F)nn2)on1 [Example 43]	Y
Cc1ccc(-c2cc(C(=O)NCc3nc(C(F)(F)F)no3)ncc2OCC(F)(F)F)cc1C [Example 78]	N
Cn1cc(Cl)c(CNC(=O)c2cnc(OCC(F)(F)F)c(-c3ccc(Cl)cc3)c2)n1 [Example 26]	Y

Q) Quick check, inhibition at 10 µM >= 10%? O=C(NCc1nc(C(F)(F)F)no1)c1cnc(OC2CCC2)c(-c2ccc(F)c(F)c2)c1 [Example 91]
A) Y

Q) Determine whether measured inhibition at 10 µM meets or exceeds 10% for O=C(NCc1nc(C(F)(F)F)no1)c1cnc(OCC(F)(F)F)c(-c2ccc(Cl)cc2)c1 [Example 15]
A) N

Q) # bool: inhibition at 10 µM of CC(C)c1cc(CNC(=O)c2cc(-c3ccc(Cl)cc3)c(OCC(F)(F)F)nn2)no1 [Example 42] >= 10%
A) Y

----------
# test.target: human CB1 receptor (Homo sapiens, UniProt P21554)
# Construct: expressed in transfected cells; host or cells: human embryonic kidney (HEK) cells, Semliki Forest Virus system, membrane preparations
# Sequence (P21554 whole entry): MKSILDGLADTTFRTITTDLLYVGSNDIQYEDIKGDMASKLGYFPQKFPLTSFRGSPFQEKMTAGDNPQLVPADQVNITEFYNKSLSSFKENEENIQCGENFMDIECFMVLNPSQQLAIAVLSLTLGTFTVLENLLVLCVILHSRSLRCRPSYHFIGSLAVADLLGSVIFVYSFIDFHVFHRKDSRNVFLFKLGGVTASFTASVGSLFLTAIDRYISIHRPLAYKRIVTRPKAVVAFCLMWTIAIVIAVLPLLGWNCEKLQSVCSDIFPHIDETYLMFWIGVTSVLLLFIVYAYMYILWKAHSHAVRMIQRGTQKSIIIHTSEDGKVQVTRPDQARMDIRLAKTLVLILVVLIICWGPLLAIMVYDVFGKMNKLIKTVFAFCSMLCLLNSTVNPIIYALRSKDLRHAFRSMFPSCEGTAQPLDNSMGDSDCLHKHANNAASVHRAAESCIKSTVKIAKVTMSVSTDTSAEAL
# measurement.protocol: CB1 receptor affinity, [3H]-CP-55,940 displacement, HEK cell membranes
# Format: binding
# protocol.conditions: read-out: CB1 receptor affinity [% inhibition @ 10 μM]
# inhibition at 10 µM per entry

Here are 5 compounds together with their reported answers.
COc1cc(CNC(=O)c2cc(-c3ccc(Cl)c(C)c3)c(OCC(F)(F)F)cn2)on1	11%
COCCOc1ncc(C(=O)NCc2nc(C(F)(F)F)no2)cc1-c1ccc(Cl)c(F)c1	48%
CC(C)c1cc(CNC(=O)c2cnc(OCC(F)(F)F)c(-c3ccc(Cl)cc3)c2)no1	47%
O=C(NCc1cc(C(F)(F)F)on1)c1cc(-c2ccc(Cl)cc2)c(OCC(F)(F)F)cn1	37%
CCCc1nc(CNC(=O)c2cnc(OCC3CC3)c(-c3ccc(Cl)cc3)c2)cs1	25%

Recorded inhibition at 10 µM (compound COc1cc(CNC(=O)c2cc(-c3ccc(C)c(Cl)c3)c(OCC(F)(F)F)cn2)on1 ): 22%

Reported inhibition at 10 µM for O=C(NCc1csc(C2CC2)n1)c1ccc(OCC2CC2)c(-c2ccc(Cl)cc2)n1 was 31%

----------
# test.target: human CB2 receptor (Homo sapiens, UniProt P34972)
# Construct: expressed in transfected cells; host or cells: human embryonic kidney (HEK) cells, Semliki Forest Virus system, membrane preparations
# measurement.protocol: CB2 receptor affinity, [3H]-CP-55,940 displacement, HEK cell membranes
# Assay type: binding
# protocol.conditions: 10 μM compound, radioligand [3H]-CP-55,940
We use 20% as the dividing line for inhibition at 10 µM: on or above the line is True, below is False.

As a guide, the following entries are already answered.
CCCc1nc(CNC(=O)c2cnc(OCC(F)(F)F)c(-c3ccc(Cl)cc3)c2)cs1	False
C[C@H](Oc1cnc(C(=O)NCc2cc(C(F)(F)F)no2)nc1-c1ccc(Cl)cc1)C(F)(F)F	False
CC(C)c1cc(CNC(=O)c2ccc(OCC(F)(F)F)c(-c3ccc(Cl)cc3)n2)on1	False

Read the next record carefully.
Q) Hi, just wondering whether COc1cc(CNC(=O)c2cc(-c3ccc(Cl)c(C)c3)c(OCC(F)(F)F)cn2)on1 shows inhibition at 10 µM of 20% or higher.
A) True
